- assay_explanation: Metabolic stability in mouse plasma assessed as half life
- Format: ADME, cell-free

{"smi": "CO[C@H]1/C=C/CC/C=C/C(=O)O[C@H]([C@H](C)C(=O)CCCC2CC(=O)NC(=O)C2)/C(C)=C\\[C@@H](C)[C@@H]1O", "half-life [min]": 5}
